target: human ACC2 (Homo sapiens, UniProt O00763); construct: made in house; host or cells: insect cells (baculoviral expression system); assay: ACC2 assay, spectrophotometric 384 well assay (NADH-linked, coupled lactate dehydrogenase/pyruvate kinase); assay type: biochemical; details: ACC2 assay, hACC2 construct lacking 128 N-terminal amino acids, 25° C., 340 nm; read-out: IC50
Sequence (O00763 129-2458 limits assumed): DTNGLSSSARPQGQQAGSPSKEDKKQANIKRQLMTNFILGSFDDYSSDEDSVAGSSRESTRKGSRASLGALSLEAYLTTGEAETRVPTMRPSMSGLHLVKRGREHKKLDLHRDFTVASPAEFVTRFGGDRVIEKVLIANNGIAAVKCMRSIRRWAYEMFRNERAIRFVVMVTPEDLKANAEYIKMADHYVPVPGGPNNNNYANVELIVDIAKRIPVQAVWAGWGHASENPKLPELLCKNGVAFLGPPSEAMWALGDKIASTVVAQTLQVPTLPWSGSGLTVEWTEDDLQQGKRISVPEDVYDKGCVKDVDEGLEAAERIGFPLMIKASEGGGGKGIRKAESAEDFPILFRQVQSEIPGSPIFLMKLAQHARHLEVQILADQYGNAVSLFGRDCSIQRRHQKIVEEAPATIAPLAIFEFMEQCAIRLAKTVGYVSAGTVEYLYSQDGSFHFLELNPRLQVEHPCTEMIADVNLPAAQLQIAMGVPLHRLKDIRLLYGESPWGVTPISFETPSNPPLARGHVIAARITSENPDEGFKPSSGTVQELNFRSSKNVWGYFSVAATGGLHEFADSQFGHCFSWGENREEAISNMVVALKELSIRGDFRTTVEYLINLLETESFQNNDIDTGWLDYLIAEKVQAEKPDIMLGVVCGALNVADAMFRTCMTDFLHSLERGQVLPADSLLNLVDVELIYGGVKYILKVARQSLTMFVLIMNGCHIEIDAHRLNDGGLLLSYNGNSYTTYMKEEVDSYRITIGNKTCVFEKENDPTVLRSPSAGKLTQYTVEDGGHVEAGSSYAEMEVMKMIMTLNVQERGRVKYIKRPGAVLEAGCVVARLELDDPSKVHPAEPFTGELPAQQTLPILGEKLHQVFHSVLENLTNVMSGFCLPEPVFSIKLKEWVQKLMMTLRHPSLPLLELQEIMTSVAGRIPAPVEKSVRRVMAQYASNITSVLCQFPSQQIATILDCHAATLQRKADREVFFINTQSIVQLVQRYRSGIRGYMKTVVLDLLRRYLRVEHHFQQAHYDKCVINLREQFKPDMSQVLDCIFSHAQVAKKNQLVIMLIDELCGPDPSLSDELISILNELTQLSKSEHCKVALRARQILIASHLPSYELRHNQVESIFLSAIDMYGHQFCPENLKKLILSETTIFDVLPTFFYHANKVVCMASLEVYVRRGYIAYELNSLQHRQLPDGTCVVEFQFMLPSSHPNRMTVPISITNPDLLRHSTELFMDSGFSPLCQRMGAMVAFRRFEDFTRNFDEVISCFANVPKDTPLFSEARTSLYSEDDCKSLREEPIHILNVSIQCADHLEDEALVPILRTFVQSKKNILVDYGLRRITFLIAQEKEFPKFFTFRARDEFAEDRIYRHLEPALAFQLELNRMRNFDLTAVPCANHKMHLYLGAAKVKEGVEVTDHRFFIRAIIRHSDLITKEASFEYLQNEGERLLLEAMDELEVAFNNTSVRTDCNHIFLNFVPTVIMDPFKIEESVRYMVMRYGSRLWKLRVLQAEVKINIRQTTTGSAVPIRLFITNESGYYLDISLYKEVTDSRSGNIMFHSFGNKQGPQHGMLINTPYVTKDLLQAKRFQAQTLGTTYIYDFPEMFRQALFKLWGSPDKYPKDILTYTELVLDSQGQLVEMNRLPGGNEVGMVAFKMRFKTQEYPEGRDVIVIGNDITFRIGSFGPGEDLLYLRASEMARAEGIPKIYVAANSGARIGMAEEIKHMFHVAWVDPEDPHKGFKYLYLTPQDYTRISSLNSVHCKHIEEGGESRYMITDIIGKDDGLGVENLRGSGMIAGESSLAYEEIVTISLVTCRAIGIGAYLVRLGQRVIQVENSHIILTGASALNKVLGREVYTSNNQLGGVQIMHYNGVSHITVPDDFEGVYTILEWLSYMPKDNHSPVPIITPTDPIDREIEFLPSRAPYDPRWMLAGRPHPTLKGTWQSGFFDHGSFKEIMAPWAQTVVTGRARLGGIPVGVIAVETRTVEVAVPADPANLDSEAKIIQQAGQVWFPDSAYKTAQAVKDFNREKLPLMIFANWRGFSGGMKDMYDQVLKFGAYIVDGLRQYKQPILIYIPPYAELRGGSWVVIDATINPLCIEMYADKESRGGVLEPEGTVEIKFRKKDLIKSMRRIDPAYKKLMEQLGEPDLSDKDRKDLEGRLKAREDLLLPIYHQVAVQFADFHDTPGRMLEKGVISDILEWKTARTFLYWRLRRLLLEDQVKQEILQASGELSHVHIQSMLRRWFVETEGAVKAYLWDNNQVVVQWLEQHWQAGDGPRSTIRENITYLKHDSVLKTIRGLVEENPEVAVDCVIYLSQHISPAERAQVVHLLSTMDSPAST
result_type: log10(IC50) (log10 of the value in µM)
Note the log scale: values are log10 of IC50 expressed in µM.

Lab book: log10(IC50) of "CC(=O)N[C@@H](C)c1ccc(C2CCN(c3ncc(C(=O)N[C@H]4CCOC4)cn3)CC2)cc1" noted as 0.86

Lab book: log10(IC50) of "CC(=O)N[C@@H](C)c1ccc(C2CCN(c3cccc(C(=O)N4Cc5ccccc5C4)c3)CC2)cc1" noted as 0.23

Lab book: log10(IC50) of "CC(=O)N[C@@H](C)c1ccc(C2CCN(c3ncc(-c4coc5ccccc45)cn3)CC2)cc1" noted as -0.77

Lab book: log10(IC50) of "COCCCOc1ccc(N2CCC(c3ccc([C@H](C)NC(C)=O)cc3)CC2)cc1" noted as -0.66

Lab book: log10(IC50) of "C[C@H](NC(=O)N(C)C)c1ccc(C2CCN(c3ccc(OCCC4CC4)cc3)CC2)cc1" noted as -1.22

Lab book: log10(IC50) of "CC(=O)N[C@@H](C)c1ccc(C2CCN(c3ccc(OCC(F)F)cc3)CC2)cc1" noted as -0.11

Lab book: log10(IC50) of "CC(=O)N[C@@H](C)c1ccc(C2CCN(c3ncc(C(=O)NCc4ccccn4)cn3)CC2)cc1" noted as 0.79

Lab book: log10(IC50) of "CC(=O)N[C@@H](C)c1ccc(C2CCN(c3cc(-c4ccc5[nH]ccc5c4)ncn3)CC2)cc1" noted as -0.36

Lab book: log10(IC50) of "COc1ncc(-c2cnc(N3CCC(c4ccc([C@H](C)NC(C)=O)cc4)CC3)nc2)cn1" noted as 0.04

Lab book: log10(IC50) of "CCCOc1ccc(N2CCC(c3ccc([C@@H](C)NC(C)=O)cc3)CC2)c(OC)c1" noted as 0.81

Lab book: log10(IC50) of "CC(=O)N[C@@H](C)c1ccc(C2CCN(c3cc(N4CCCCC4)ncn3)CC2)cc1" noted as -0.38

Lab book: log10(IC50) of "CC(=O)N[C@@H](C)c1ccc(C2CCN(c3ccnc(OCCC(C)(C)C)n3)CC2)cc1" noted as -0.09

Lab book: log10(IC50) of "C[C@H](NC(=O)C1CC1)c1ccc(C2CCN(c3ncc(-c4ccc(F)cc4)cn3)CC2)cc1" noted as -1.10

Lab book: log10(IC50) of "CC(=O)N[C@@H](C)c1ccc(C2CCN(c3ccc4c(c3F)OCCO4)CC2)cc1" noted as -0.92

Lab book: log10(IC50) of "CCCOc1cnc(N2CCC(c3ccc([C@H](C)NC(C)=O)cc3)CC2)cn1" noted as -0.54

Lab book: log10(IC50) of "COc1cc(OC2CC2)ccc1N1CCC(c2ccc([C@H](C)NC(=O)C3CC3)cc2)CC1" noted as -0.24

Lab book: log10(IC50) of "CCOc1ccc(N2CCC(c3ccc([C@H](C)NC(=O)CC)cc3)CC2)c(C#N)c1" noted as -0.52

Lab book: log10(IC50) of "CC(C)Oc1cc(N2CCC(c3ccc([C@H](C)NC(=O)N(C)C)cc3)CC2)ccn1" noted as -0.92

Lab book: log10(IC50) of CCC(NC(C)=O)c1ccc(C2CCN(c3ccc(OCC4CC4(F)F)cc3)CC2)cc1 (stereo not shown) noted as -0.18

Lab book: log10(IC50) of "CC(=O)N[C@@H](C)c1ccc(C2CCN(c3ncc4nc(-c5ccccc5)oc4n3)CC2)cc1" noted as -1.22

Lab book: log10(IC50) of "CC(=O)N[C@@H](C)c1ccc(C2CCN(c3ncc(C(=O)NC4CCNCC4)cn3)CC2)cc1" noted as 1.22

Lab book: log10(IC50) of CC(=O)N[C@@H](C)c1ccc(C2CCN(c3ncc(C(=O)NCC4CCN(Cc5ccccc5)C4)cn3)CC2)cc1 (stereo partly shown) noted as 1.07

Lab book: log10(IC50) of "COC(=O)N[C@@H](C)c1ccc(C2CCN(c3ccc(OCC4CC4)cc3)CC2)cc1" noted as -0.85

Lab book: log10(IC50) of "CC(=O)N[C@@H](C)c1ccc(C2CCN(c3ccc4c(c3)OCCO4)CC2)cc1" noted as -0.85

Lab book: log10(IC50) of "CCCOc1cc(N2CCC(c3ccc([C@H](C)NC(C)=O)cc3)CC2)ccn1" noted as -0.92

Lab book: log10(IC50) of "CCOc1ccc(N2CCC(c3ccc([C@H](C)NC(=O)CC4CC4)cc3)CC2)cc1" noted as 0.04

Lab book: log10(IC50) of "CC(=O)N[C@@H](C)c1ccc(C2CCN(c3ccnc(N4CCCC4)n3)CC2)cc1" noted as -0.74

Lab book: log10(IC50) of "CC(=O)N[C@@H](C)c1ccc(C2CCN(c3ncc(-c4cccnc4C)cn3)CC2)cc1" noted as 0.36

Lab book: log10(IC50) of "CC(=O)N[C@@H](C)c1ccc(C2CCN(c3ncc(-c4cnc(Br)n4C)cn3)CC2)cc1" noted as 0.08

Lab book: log10(IC50) of CC(=O)N[C@@H](C)c1ccc(C2CCN(c3ccnc(OCC4CCOC4)c3)CC2)cc1 (stereo partly shown) noted as -0.47

Lab book: log10(IC50) of "CC(=O)N[C@@H](C)c1ccc(C2CCN(c3cc(-c4ccccc4)ncn3)CC2)cc1" noted as 0.04

Source listed as patent US9006450B2.
